biological target: RAF proto-oncogene serine/threonine-protein kinase (Homo sapiens, UniProt P04049); assay: Inhibition of CRAF (unknown origin) after 20 mins in presence of 33P-gamma-ATP by hotspot kinase assay
Sequence (P04049 whole entry): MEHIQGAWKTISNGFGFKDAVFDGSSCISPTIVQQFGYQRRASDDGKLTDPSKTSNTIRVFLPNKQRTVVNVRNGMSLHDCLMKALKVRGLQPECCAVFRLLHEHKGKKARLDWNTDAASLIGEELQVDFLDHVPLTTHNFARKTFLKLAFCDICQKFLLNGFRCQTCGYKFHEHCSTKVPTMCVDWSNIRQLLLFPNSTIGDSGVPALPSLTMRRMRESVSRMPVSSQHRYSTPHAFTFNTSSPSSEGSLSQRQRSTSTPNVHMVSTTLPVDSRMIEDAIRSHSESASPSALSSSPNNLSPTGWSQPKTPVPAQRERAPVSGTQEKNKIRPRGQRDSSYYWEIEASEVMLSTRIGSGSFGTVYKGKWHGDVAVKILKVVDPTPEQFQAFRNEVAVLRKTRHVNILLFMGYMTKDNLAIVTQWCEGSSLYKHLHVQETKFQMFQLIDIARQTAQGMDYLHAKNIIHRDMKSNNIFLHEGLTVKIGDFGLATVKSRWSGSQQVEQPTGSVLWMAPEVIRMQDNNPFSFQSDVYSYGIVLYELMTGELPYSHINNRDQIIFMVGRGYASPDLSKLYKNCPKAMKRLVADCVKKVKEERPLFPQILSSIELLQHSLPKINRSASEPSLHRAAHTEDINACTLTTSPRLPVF
QUANTITY KIND: IC50 (nM)
One number for each entry, in nM.

Reported IC50 for Cc1ccc(C(=O)Nc2ccc(C(F)(F)F)c(Cl)c2)cc1NC(=O)C1(c2ccnc(NCCN3CCN(C)CC3)n2)CC1 : what is it?
17.5

###

test system: UO-31; test: Antiproliferative activity against human UO31 cells; type: functional, cell-based
QUANTITY KIND: IC50 (nM)
Give bare numbers, in nM.

Solved cases (2 shown):
MOLECULAR STRING: COc1ccc(C(=O)NCCNc2nccc(-c3c(-c4ccc(F)cc4)nc4sccn34)n2)cc1
RESULT NUMBER: 1420
--
MOLECULAR STRING: O=C(NCCNc1nccc(-c2c(-c3ccc(F)cc3)nc3sccn23)n1)Nc1ccccc1
RESULT NUMBER: 2940

Reported IC50 for O=C(NCCNc1nccc(-c2c(-c3ccc(F)cc3)nc3sccn23)n1)c1ccccc1 : what is it?
1750

###

tested on: COLO 205; test: Antiproliferative activity against human COLO205 cells after 72 hrs by CTG solution based luminescence assay; assay type: functional, cell-based; conditions: COLO 205, 72 h
QUANTITY KIND: pIC50
Answers are plain numbers, as −log10 of the molar value.

Reported pIC50 for Cc1ccc(C(=O)Nc2ccc(C(F)(F)F)c(Cl)c2)cc1NC(=O)C1(c2ccnc(NCCN3CCN(C)CC3)n2)CC1 : what is it?
5.72

###

test system: HepG2; assay: Antiproliferative activity against human HepG2 cells; format: functional, cell-based
QUANTITY KIND: IC50

COMPOUND: CC(NC(=O)c1cccc(-c2ccc(NC(=O)Nc3ccc(C(F)(F)F)c(Cl)c3)cc2)c1)c1ccccc1 (configuration not stated)
IC50: 5.17 to 6.46 µM

With those in mind, consider the next compound.
Reported IC50 for CNC(=O)c1cc(Oc2ccc(NC(=O)Nc3ccc(Cl)c(C(F)(F)F)c3)cc2)ccn1 [SORAFENIB] : what is it?
8.27 to 18.8 µM

###

molecular target: Serine/threonine-protein kinase A-Raf (Homo sapiens); assay: Inhibition of ARAF (unknown origin)
Sequence (P10398 whole entry): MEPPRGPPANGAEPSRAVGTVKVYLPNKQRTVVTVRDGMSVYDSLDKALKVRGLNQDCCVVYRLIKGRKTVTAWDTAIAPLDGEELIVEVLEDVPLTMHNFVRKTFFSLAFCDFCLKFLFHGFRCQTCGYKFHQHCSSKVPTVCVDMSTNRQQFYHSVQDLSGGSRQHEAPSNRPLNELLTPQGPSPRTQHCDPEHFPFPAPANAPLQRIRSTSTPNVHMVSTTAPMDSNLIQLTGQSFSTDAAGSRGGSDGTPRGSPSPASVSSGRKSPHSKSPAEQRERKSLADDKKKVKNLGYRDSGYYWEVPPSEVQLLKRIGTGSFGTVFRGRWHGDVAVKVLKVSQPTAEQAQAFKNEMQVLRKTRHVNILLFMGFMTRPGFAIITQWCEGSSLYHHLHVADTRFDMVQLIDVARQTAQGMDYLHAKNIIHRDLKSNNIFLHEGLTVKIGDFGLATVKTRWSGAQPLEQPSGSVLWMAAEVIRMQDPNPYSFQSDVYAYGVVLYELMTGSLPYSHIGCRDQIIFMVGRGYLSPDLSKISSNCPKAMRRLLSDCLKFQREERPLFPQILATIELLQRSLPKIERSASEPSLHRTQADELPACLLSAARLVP
QUANTITY KIND: IC50 (nM)
Give bare numbers, in nM.

Reported IC50 for Cc1ccc(C(=O)Nc2ccc(C(F)(F)F)c(Cl)c2)cc1NC(=O)C1(c2cc(NCCCN3CCN(C)CC3)ncn2)CC1 : what is it?
25.3

###

target: Serine/threonine-protein kinase B-raf (Homo sapiens, UniProt P15056, V600E); experiment: Inhibition of […] BRAF V600E mutant (AA416 to 766 residues (unknown origin) using full length His6-tagged MEK1 as substrate after 20 mins in presence of 33P-gamma-ATP by hotspot kinase assay
Sequence (P15056 2-766 V600E limits assumed): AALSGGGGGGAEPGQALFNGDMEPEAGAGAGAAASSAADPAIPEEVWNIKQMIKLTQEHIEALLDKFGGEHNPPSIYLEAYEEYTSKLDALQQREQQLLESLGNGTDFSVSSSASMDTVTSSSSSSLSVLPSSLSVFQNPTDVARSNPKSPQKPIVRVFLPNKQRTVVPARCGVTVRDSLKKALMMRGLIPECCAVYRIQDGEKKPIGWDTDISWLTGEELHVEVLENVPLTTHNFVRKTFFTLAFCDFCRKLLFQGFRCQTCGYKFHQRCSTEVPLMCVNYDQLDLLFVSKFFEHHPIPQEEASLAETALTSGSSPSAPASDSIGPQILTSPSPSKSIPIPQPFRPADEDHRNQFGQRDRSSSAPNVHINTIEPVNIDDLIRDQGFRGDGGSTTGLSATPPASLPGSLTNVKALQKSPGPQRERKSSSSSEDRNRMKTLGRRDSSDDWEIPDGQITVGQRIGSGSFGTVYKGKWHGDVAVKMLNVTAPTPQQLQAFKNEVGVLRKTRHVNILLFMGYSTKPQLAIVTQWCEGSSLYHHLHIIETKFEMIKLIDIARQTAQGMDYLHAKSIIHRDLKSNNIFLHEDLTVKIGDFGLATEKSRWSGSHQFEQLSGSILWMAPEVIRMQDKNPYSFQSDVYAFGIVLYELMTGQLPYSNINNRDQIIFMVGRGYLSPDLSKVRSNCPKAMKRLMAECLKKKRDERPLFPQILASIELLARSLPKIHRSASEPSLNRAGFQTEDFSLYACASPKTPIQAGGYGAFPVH
QUANTITY KIND: IC50 (nM)
Answers are plain numbers, in nM.

Reported IC50 for Cc1ccc(C(=O)Nc2ccc(C(F)(F)F)c(Cl)c2)cc1NC(=O)C1(c2ccnc(NCCN3CCN(C)CC3)n2)CC1 : what is it?
12.6

###

Would you mind telling me the reported pIC50 of each entry?
tested on: MCF7; experiment: Antiproliferative activity against human MCF7 cells; assay type: functional, cell-based
One number for each entry, as −log10 of the molar value.

Solved cases (2 shown):
MOLECULAR STRING: COc1ccc(C(=O)NCCNc2nccc(-c3c(-c4ccc(F)cc4)nc4sccn34)n2)cc1
QUANTITY KIND: pIC50
RESULT NUMBER: 5.70
//
MOLECULAR STRING: O=C(NCCNc1nccc(-c2c(-c3ccc(F)cc3)nc3sccn23)n1)Nc1ccccc1
QUANTITY KIND: pIC50
RESULT NUMBER: 5.43

With those in mind, consider the next compound.
Reported pIC50 for O=C(NCCNc1nccc(-c2c(-c3ccc(F)cc3)nc3sccn23)n1)c1ccccc1 : what is it?
5.84
